- measured target: 5-hydroxytryptamine receptor 1A (Homo sapiens, UniProt P08908)
- Sequence (P08908 whole entry): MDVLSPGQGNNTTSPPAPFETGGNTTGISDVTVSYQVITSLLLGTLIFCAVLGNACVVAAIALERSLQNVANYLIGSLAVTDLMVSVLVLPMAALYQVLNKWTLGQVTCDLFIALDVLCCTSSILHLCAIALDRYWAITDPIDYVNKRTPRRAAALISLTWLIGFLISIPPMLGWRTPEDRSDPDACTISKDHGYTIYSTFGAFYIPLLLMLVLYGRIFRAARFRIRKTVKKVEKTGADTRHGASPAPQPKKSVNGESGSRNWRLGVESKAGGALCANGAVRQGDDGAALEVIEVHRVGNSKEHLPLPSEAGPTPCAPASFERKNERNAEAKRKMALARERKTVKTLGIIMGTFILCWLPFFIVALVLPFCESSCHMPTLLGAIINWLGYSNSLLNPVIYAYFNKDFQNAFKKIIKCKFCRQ
endpoint: Ki
Note to self: number, then unit, no commentary.

Ki measured on `c1ccc(-c2ncc(CN3CCN(c4ncccn4)CC3)[nH]2)cc1` = 181 nM

* * *

Parameter pKi, tested on D(3) dopamine receptor (Homo sapiens, UniProt P35462), listed per item.
Sequence (P35462 whole entry): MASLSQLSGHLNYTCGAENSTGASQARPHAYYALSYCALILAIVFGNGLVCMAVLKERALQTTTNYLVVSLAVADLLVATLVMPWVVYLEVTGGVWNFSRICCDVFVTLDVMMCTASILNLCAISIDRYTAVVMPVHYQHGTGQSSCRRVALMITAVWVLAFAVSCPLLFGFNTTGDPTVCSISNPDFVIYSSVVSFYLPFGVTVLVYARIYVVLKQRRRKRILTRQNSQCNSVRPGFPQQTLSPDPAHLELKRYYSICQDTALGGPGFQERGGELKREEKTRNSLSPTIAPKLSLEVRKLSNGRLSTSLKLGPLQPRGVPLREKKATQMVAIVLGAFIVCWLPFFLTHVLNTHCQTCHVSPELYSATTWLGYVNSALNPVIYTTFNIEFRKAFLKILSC
pKi: −log10 of the molar value.

Per the records, this molecule ( `c1ccc(-c2ncc(CN3CCN(c4ccncc4)CC3)[nH]2)cc1` ) has pKi equal to < 5.10

Looking up `Cc1nc(-c2ccccc2)[nH]c1CN1CCN(c2ncccn2)CC1` , I see its pKi listed as 5.53

response.value for `c1ccc(-c2nc(CN3CCN(c4cnccn4)CC3)c[nH]2)cc1` (field: pKi) = < 5.18

pKi in this record for `c1ccc(-c2ncc(CN3CCN(c4ncccn4)CC3)[nH]2)cc1` : < 5.10
